experiment: Plasmodium falciparum growth inhibition, primary screen, strain 3D7, DAPI fluorescence, 100 nL (AID 1184);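 further: parasites grown inside human red blood cells in medium with human serum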; settings: P. falciparum 3D7 growth, 3 d, higher = more signal
assay.metric: z-score
Number only, please.

Recorded z-score, per entry:
INSERT INTO measurements (compound, recorded_result) VALUES
  ('CN1C(=O)C2C=CC(C(O)c3cc(C(F)(F)F)cc(C(F)(F)F)c3)N(N3CCCCC3)C2C1=O (stereo unspecified)', -0.0782),
  ('COc1ccc(C(O)C2C=CC3C(=O)N(c4ccccc4)C(=O)C3N2Nc2ccccc2F)cc1OCc1ccccc1 (stereo unspecified)', -0.193),
  ('COc1cc(CO)cc(I)c1O[C@H]1C=C(C(=O)NCCO)C[C@@H](N(CCN2CCOCC2)C(=O)C2CCOC2)[C@@H]1O (stereo partly specified)', 0.199);

State, in one line, measured z-score of CCOC(=O)C[C@H]1[C@H](OC(=O)Cc2ccc3c(c2)OCO3)[C@@H](NC(=O)c2ccc(-c3ccccc3)cc2)c2cc(OCCCO)ccc2N1C(=O)c1ccc2ccccc2n1
-2.38

Provide only the value of recorded z-score for CC(C)N1C(=O)[C@@]2(Cc3ccccc31)c1ccccc1C(=O)N(C1CCCCC1)[C@H]2c1ccc(CO)cc1
-0.288

Tell me its z-score given [N-]=[N+]=Nc1ccccc1[C@H]1OC(c2ccc(OCCCO)cc2)=N[C@@]1(Cc1ccccc1)C(=O)O as the entry.
-1.23
